target: recombinant form of Glutaminase 1 (GAC) (Homo sapiens); test: Recombinant Enzyme Assay - Time Dependence (60 minutes enzyme/compound preincubation); type: biochemical; conditions: read-out: GAC Delta N2 IC50 60 min preinc
Sorting guide: entries reporting IC50 beneath 30 nM go in the yes pile, the rest go in the no pile.

Illustrative cases are given below, each with its answer.
compound	discreteLabel
O=C(Cc1ccccc1)Nc1nnc(CCCCc2nnc(NC(=O)Cc3cccc(OCCN4CCOCC4)c3)s2)s1	no
O=C(Cc1cccc(Br)c1)Nc1nnc(CCSCCc2nnc(NC(=O)Cc3cccc(Br)c3)s2)s1	no
O=C(Nc1nnc(CCCCc2nnc(NC(=O)[C@@H](O)c3ccccc3)s2)s1)[C@@H](O)c1ccccc1	no
O=C(Cc1ccccc1)Nc1nnc(CCCCc2nnc(NC(=O)Cc3cccc(Cn4cccn4)c3)s2)s1	yes
O=C(Nc1nnc(CCCCc2nnc(NC(=O)C(O)c3cccc(Br)c3)s2)s1)C(O)c1cccc(Br)c1 (centres unmarked)	no
O=C(Nc1nnc(CCCCc2nnc(NC(=O)C(O)c3cccc(Cl)c3)s2)s1)C(O)c1cccc(Cl)c1 (centres unmarked)	no
O=C(Cc1ccccc1)Nc1ccc(CCCCc2nnc(NC(=O)C(OC(=O)CCN3CCOCC3)c3cccc(Cl)c3)s2)nn1 (centres unmarked)	no
CC(C)(C)OC(=O)N1CCN(Cc2cccc(CC(=O)Nc3nnc(CCSCc4nnc(NC(=O)Cc5cccc(CN6CCN(C(=O)OC(C)(C)C)CC6)c5)s4)s3)c2)CC1	no
CNCc1cccc(CC(=O)Nc2nnc(CCCCc3nnc(NC(=O)Cc4ccccc4)s3)s2)c1	no
CN(Cc1cccc(CC(=O)Nc2nnc(CCCCc3nnc(NC(=O)Cc4ccccc4)s3)s2)c1)C(=O)OC(C)(C)C	yes

Next, consider the following compound.
Does the reported IC50 of the following compound sit strictly below 30 nM? O=C(Cc1ccccc1)Nc1nnc(CCCCc2nnc(NC(=O)C(O)c3cccc(Cl)c3)s2)s1 (centres unmarked)
yes

###

compounds and their reported IC50
biological target: recombinant form of Glutaminase 1 (GAC) (Homo sapiens, UniProt O94925); assay: Recombinant Enzyme Assay (GAC coupled to GDH, NADH absorbance, no preincubation); assay type: biochemical; details: no preincubation; read-out: GAC Delta N2 IC50 no preinc
Give the value in µM but do not write µM after it.

compound	assayTarget	testResult
O=C(Nc1nnc(CCSCCc2nnc(NC(=O)C3CCCO3)s2)s1)C1CCCO1 (centres unmarked)	recombinant form of Glutaminase 1 (GAC) (Homo sapiens, UniProt O94925)	26
COC(=O)C(C(=O)Nc1nnc(CCSCCc2nnc(NC(=O)C(C(=O)OC)c3ccccc3)s2)s1)c1ccccc1 (centres unmarked)	recombinant form of Glutaminase 1 (GAC) (Homo sapiens, UniProt O94925)	2
CC(C(=O)Nc1nnc(CCSCCc2nnc(NC(=O)C(C)c3ccccc3)s2)s1)c1ccccc1 (centres unmarked)	recombinant form of Glutaminase 1 (GAC) (Homo sapiens, UniProt O94925)	11

Item under review: O=C(Cc1ccccc1)Nc1ccc(CCCCc2ccc(NC(=O)Cc3ccccc3)nn2)nn1 . Reported IC50?
0.08

What would you report for O=C(CCN1CCOCC1)OCC(C(=O)Nc1nnc(CCCCc2nnc(NC(=O)C(COC(=O)CCN3CCOCC3)c3ccccc3)s2)s1)c1ccccc1 (centres unmarked) ?
2

What would you report for COc1ccc(CC(=O)Nc2nnc(CCSCCc3nnc(NC(=O)Cc4ccc(OC)cc4)s3)s2)cc1 ?
0.15

What would you report for C=CCCC(=O)Nc1nnc(CCSCCc2nnc(NC(=O)CCC=C)s2)s1 ?
4.5

What would you report for Cc1ccccc1C(C)C(=O)Nc1nnc(CCSCCc2nnc(NC(=O)C(C)c3ccccc3C)s2)s1 (centres unmarked) ?
0.36
